molecular target: Leucine-rich repeat serine/threonine-protein kinase 2 (Homo sapiens, UniProt Q5S007, G2019S); assay: Inhibition of GST20-tagged truncated human LRRK2 G2019S mutant using fluorescein labeled LRRKtide peptide as substrate by Lantha screen assay
Sequence (Q5S007 whole entry G2019S, the tested form may be a part): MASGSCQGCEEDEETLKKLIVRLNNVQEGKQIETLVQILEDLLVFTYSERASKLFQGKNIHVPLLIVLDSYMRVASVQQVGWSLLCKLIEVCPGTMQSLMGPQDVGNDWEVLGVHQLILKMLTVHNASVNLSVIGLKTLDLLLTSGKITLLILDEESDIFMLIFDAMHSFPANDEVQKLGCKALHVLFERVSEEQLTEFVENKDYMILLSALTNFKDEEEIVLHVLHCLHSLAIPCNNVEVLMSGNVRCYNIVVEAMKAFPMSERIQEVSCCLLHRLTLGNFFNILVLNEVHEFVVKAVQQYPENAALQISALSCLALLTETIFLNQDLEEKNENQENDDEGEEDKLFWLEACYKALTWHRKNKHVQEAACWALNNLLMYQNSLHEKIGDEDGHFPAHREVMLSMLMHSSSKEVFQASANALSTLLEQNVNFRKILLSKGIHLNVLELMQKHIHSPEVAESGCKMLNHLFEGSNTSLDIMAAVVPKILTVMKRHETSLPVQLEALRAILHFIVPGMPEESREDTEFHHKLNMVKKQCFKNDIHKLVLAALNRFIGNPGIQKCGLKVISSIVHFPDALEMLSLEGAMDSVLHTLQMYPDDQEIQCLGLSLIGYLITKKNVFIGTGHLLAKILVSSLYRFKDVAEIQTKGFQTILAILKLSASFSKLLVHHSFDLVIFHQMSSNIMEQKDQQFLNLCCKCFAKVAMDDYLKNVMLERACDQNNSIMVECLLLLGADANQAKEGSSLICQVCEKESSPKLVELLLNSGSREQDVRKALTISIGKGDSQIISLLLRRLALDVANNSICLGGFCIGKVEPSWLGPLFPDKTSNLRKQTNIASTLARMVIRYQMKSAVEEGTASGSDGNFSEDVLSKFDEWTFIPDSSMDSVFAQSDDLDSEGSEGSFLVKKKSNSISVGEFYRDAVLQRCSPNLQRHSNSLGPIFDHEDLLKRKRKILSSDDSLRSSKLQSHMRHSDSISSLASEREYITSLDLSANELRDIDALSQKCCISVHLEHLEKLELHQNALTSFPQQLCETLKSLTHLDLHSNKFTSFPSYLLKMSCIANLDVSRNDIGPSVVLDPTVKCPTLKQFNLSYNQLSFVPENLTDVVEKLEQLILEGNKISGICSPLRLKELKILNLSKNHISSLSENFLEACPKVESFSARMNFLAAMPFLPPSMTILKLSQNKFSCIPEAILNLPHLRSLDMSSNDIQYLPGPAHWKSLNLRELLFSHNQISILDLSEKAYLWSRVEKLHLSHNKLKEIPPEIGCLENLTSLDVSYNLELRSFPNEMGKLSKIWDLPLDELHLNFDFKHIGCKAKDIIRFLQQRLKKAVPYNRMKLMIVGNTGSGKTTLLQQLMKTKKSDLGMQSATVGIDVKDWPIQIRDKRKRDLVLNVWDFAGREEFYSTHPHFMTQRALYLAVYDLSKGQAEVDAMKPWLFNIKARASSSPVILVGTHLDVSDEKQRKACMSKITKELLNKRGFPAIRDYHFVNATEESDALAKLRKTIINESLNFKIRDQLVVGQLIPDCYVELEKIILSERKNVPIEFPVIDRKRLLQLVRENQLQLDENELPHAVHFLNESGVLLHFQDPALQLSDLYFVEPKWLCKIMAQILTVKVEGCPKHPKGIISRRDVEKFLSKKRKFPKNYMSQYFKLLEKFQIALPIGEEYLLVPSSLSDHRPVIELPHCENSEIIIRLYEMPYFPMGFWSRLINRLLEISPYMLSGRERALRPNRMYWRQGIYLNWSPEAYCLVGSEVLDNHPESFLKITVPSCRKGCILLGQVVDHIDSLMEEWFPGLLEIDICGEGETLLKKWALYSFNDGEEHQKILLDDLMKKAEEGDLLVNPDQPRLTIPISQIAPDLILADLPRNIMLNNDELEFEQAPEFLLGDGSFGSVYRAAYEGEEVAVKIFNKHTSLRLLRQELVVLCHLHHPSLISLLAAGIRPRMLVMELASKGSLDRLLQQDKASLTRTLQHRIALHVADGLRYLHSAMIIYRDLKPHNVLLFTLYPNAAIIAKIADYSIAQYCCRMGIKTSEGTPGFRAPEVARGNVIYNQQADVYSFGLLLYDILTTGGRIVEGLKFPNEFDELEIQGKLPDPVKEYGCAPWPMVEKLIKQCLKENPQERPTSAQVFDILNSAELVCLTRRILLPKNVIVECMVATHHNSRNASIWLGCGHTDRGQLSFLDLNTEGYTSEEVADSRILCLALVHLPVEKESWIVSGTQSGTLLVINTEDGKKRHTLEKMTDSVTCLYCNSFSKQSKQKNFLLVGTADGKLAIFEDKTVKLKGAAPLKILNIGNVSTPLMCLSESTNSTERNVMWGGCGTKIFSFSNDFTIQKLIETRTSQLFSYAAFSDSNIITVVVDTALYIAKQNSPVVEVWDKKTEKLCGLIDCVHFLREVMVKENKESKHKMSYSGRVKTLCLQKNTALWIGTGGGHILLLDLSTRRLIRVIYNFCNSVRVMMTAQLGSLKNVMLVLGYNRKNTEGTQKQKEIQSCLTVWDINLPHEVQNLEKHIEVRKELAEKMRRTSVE
Measured metric: IC50

Just so you know, measured IC50 for C[C@@]1(N2CC[C@@H](c3cc4cc(NC(=O)C5CC56CC6)ncc4cc3Cl)[C@H](F)C2)COC[C@@H]1O (stereo partly specified) came out at 81.3 pM
